procedure summary: Cell Viability - LYMP2-023 (AID 975);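 also: cells exposed to compound for 24 hours at 37 °C; nearly all actives have a fitted effect of over 55% in size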
assay context: LYMP2-023 lymphoblastoid cell viability; series mostly up to 92.2 µM
Results filed as inconclusive are left out. The source made the active and inactive calls. Calls follow the shape of the dose curve; as a rule, active = well fitted cell-killing curve with a large enough effect; inconclusive = small, poorly fitted or top-dose-only effect; inactive = flat fitted curve, though single readings scatter.
Outcome codes: active, inactive

| compound | qualitative label |
| --- | --- |
| CCCCCCCC/C=C\CCCCCCCC(=O)N(CCO)CCO | inactive |
| c1ccc(CSCc2ccccc2)cc1 | inactive |
| c1ccncc1 | inactive |
| O=C(O)/C=C/c1ccc(/C=C/C(=O)O)cc1 | inactive |
| C=CC(=O)CC | inactive |
| Cc1cccnc1 | inactive |
| Cc1c2ccccc2c(C)c2c1ccc1ccccc12 | inactive |
| CCCCCCN | inactive |
| CCCCC(CC)COCCCN (configuration not stated) | inactive |
| NC(=O)Nc1nc2ccccc2[nH]1 | inactive |
| O=c1[nH]ncc2ccccc12 | inactive |
| CCCCC(CC)COC(=O)COc1ccc(Cl)cc1Cl (configuration not stated) | inactive |
| C=CC1CO1 (configuration not stated) | inactive |
| Cc1ccc(S(N)(=O)=O)cc1 | inactive |
| CC(=O)OC1CC(C)OC(C)O1 (configuration not stated) | inactive |
| C=CC(=O)OCCCCCCOC(=O)C=C | active |
| CC/C=C/C/C=C/C/C=C/CCCCCCCC(=O)OCC | active |
| C=Cc1cccc(C)c1 | inactive |
| O=C(O)c1cc(N=Nc2ccc([N+](=O)[O-])cc2)ccc1O | inactive |
| COc1ccc(C)cc1N | inactive |
| c1ccc2ncccc2c1 | inactive |
| NC(=O)c1ccc([N+](=O)[O-])cc1 | inactive |
| CCCCOC(=O)COc1ccc(Cl)cc1Cl | inactive |
| Oc1cc2c(cc1O)[C@H]1c3ccc(O)c(O)c3OC[C@@]1(O)C2 | active |
| CC(/C=C/C=C(C)/C=C/C(=O)O)=C\C=C\C=C(C)\C=C\C=C(C)\C=C\C(=O)O | inactive |
| CC(C)OCC1CO1 (configuration not stated) | inactive |
| Brc1cc(Br)c(Oc2cc(Br)c(Br)cc2Br)cc1Br | inactive |
| C/C(Cl)=C/CCl | inactive |
| CC(C)S | inactive |
| C/C=C/C=C/C=O | active |
| OCC(CBr)(CBr)CBr | inactive |
| S=C(NC1CCCCC1)NC1CCCCC1 | inactive |

* * *

study system: Glucocorticoid receptor (Homo sapiens) (UniProt P04150)
Sequence (P04150 whole entry, looked up): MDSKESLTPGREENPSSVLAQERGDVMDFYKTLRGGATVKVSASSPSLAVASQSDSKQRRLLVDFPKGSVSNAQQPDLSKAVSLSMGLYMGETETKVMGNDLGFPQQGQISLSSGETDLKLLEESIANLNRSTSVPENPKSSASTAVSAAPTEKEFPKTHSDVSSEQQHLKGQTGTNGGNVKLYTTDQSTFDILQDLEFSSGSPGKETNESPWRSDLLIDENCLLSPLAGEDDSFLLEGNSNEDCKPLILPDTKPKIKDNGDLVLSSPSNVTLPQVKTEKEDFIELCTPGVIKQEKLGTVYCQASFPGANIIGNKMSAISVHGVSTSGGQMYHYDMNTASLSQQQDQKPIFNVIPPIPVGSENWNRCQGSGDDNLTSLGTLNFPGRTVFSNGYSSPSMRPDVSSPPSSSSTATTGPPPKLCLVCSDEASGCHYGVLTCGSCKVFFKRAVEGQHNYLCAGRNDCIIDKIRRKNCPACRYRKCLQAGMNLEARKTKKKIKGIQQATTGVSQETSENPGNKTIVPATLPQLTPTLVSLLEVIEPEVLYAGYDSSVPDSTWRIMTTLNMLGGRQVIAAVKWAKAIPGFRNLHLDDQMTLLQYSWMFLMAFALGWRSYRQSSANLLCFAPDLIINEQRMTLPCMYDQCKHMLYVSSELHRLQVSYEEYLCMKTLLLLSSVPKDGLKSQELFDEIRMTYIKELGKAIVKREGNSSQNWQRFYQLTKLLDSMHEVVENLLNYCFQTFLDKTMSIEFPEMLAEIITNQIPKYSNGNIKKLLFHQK
procedure summary: GR-EFC Redistribution (AID 451); also: potency is read from the fitted curve at half-maximal effect
assay context: CHO-K1 GR-EFC translocation, beta-gal luminescence, 2 h
Activity calls are given as the source filed them. The call rests on the fitted dose curve.
assay metric: Potency

| input smiles | result |
| --- | --- |
| N#C/C(=C\NC(=S)c1ccncc1)c1nc2ccccc2s1 | > 9.22 µM (inactive) |
| Cc1cccc(CNc2ncnc3ccc(-c4ccc(C(=O)N(C)C)cc4)cc23)c1 | > 46 µM (inactive) |
| CCO[P@]1(=O)OC[C@@H]2O[C@H](n3cnc4c(N)ncnc43)[C@H](O)[C@@H]2O1 | > 9.22 µM (inactive) |
| CNS(=O)(=O)c1ccccc1C(=N)c1ccccc1 | > 9.22 µM (inactive) |
| C[C@]12CC[C@H]3c4ccc(O)cc4CC[C@@H]3[C@H]1CC[C@@H]2OC(=O)CCC1CCCC1 | > 9.22 µM (inactive) |
| Nc1ncnc2nc(N3CCN(CCO)CC3)[nH]c12 | > 9.22 µM (inactive) |

* * *

Recorded measurements of activity, negative = inhibition, one per entry
procedure summary: Stat Signaling Pathway (AID 446);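 also: ME-180 cervical cancer cells given 40 pM IL-6 alongside compound; SIE-controlled beta-lactamase reporter measured as 460/530 nm FRET emission ratio; % is scaled to controls: 0 for no effect and ±100 for the full control effect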
assay context: ME-180 SIE beta-lactamase reporter, IL-6 stimulated, 5 h; at 7.69 µM (top of the series) unless noted
Records with an inconclusive call do not appear. The source made the active and inactive calls. The call rests on the fitted dose curve; in most records, active means well fitted curve in either direction with a large enough effect (not every such curve was filed as active); inconclusive means small, poorly fitted or top-dose-only effect, or another doubt; inactive means flat fitted curve, though single readings scatter.

| input smiles | activity, negative = inhibition |
| --- | --- |
| COc1ccc(-c2nc(N)c3ncn([C@H]4O[C@@H](CO)[C@@H](O)[C@@H]4O)c3n2)cc1 | 3.98% (inactive) |
| Cc1ccc(C)c(/C(=N\N=C(N)N)C2CC2)c1 | 4.46% (inactive) |
| c1ccc([C@H](CCN2CCCC2)c2ccccn2)cc1 | 0.606% (inactive) |
| Nc1ncnc2c1ncn2[C@@H]1O[C@@H](C(=O)NC2CC2)[C@H](O)[C@@H]1O | -7% [at 38 µM] (inactive) |
| Cn1c(=S)c2[nH]c(SCCCc3ccccc3)nc2n(C)c1=O | -23.2% (inactive) |
| COc1cc(NCC[C@@H]2CCCCN2)c2ncccc2c1 | 13.7% (inactive) |

* * *

procedure summary: Cell Viability - NIH 3T3 (AID 541);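 also: potency is read from the fitted curve at half-maximal effect; cells exposed to compound for 40 hours; nearly all actives have a fitted effect of over 25% in size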
assay context: NIH 3T3 cell viability, qHTS
Results filed as inconclusive are left out. Activity calls are given as the source filed them. The call rests on the fitted dose curve; in most records, active means well fitted cell-killing curve with a large enough effect; inconclusive means small, poorly fitted or top-dose-only effect; inactive means flat fitted curve, though single readings scatter.

| input smiles | Potency |
| --- | --- |
| Nc1ccc(N)c(Cl)c1 | 31.6 µM (active) |
| O=[N+]([O-])c1cc(Cl)c(Cl)c(Cl)c1Cl | 7.94 µM (active) |
| CC(C)(C)C(=O)C1C(=O)c2ccccc2C1=O | 12.6 µM (active) |
| C=CC(=O)OCCCCCCOC(=O)C=C | 7.94 µM (active) |

* * *

procedure summary: AP1 Signaling Pathway (AID 357);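 also: ME-180 reporter cells stimulated with EGF at its EC50 level; % is scaled to controls: 0 for no effect and ±100 for the full control effect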
assay context: ME-180 AP-1-bla reporter, EGF-induced, beta-lactamase ratio, 5 h; at 7.69 µM (top of the series) unless noted
Inconclusive results are not listed.
assay metric: activity change, negative = inhibition (%)

| input smiles | assay metric | recorded number |
| --- | --- | --- |
| NS(=O)(=O)c1ccc(NC2(C(=O)O)CCCC2)cc1 | activity change, negative = inhibition | -4.84 |
| Cn1ncc2c(NCCc3ccccc3)nc(Cl)nc21 | activity change, negative = inhibition | -2.77 |
| COc1cccc(Cn2c(=O)c(C)nc3cnc(Oc4cccc(Cl)c4)nc32)c1 | activity change, negative = inhibition | -22.3 |
| COc1cc(Cl)c(CC(=O)c2c[nH]c3ccccc23)cc1OC | activity change, negative = inhibition | -19.9 |
| CN1CCC(n2[nH]c(-c3ccccc3)c(Cc3ccccc3)c2=O)CC1 | activity change, negative = inhibition | -1.32 |
| COc1ccc(Oc2ncc3nc(-c4ccc(Cl)cc4)c(=O)n(CCC#N)c3n2)cc1 | activity change, negative = inhibition | -25.6 |
| c1ccc(C[n+]2cccc(-c3cc4ccccc4[nH]3)c2)cc1 | activity change, negative = inhibition | 2.74 |
| Clc1ccccc1NN(Cc1ccccn1)c1ccccc1Cl | activity change, negative = inhibition | -10 |
| C[C@]1(c2ccccc2)O[C@@H]2C[C@@H]3[C@@H]4CCC5=CC(=O)C=C[C@@]5(C)[C@]4(F)[C@H](O)C[C@]3(C)[C@@]2(C(=O)CO)O1 | activity change, negative = inhibition | 7.91 |
| O=C(O)c1nn(-c2ccc(Cl)cc2)c2c1C(=O)c1ccccc1C2=O | activity change, negative = inhibition | -2.08 |

* * *

procedure summary: NFAT Signaling Pathway (AID 444);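 also: carbachol stimulus at about its EC50 of 1 µM final; % is scaled to controls: 0 for no effect and ±100 for the full control effect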
assay context: Jurkat NFAT-bla M1, carbachol, beta-lactamase ratio, 5 h; at 7.69 µM (top of the series) unless noted
Records with an inconclusive call do not appear. Active and inactive are the calls of the source. Calls come from the whole dose curve; as a rule, active = well fitted curve in either direction with a large enough effect (not every such curve was filed as active); inconclusive = small, poorly fitted or top-dose-only effect, or another doubt; inactive = flat fitted curve, though single readings scatter.
Recorded measurements of activity change, negative = inhibition, one per entry

| input smiles | activity change, negative = inhibition |
| --- | --- |
| CCCCC[C@@H](O)[C@@H]1C(=O)O[C@@H](C)[C@@H](O)\C=C/C=C\C=C/C=C\C=C(\C)[C@H](O)C[C@H](O)C[C@H](O)C[C@H](O)C[C@H](O)C[C@H](O)C[C@@H]1O | -11.4% (inactive) |
| O=C(NNS(=O)(=O)c1ccccc1)c1cccnc1 | 7.27% (inactive) |
| O=C(O)c1c2c(c(O)c3c1CN(C1CCCCC1)CO3)OCN(C1CCCCC1)C2 | 29.1% (inactive) |
| OCCNc1ncnc2nc[nH]c12 | 9% (inactive) |
| Nc1nc(Cl)cc(NCCO)n1 | 10.4% (inactive) |
| CN[C@@H]1NC(=O)c2ccccc2N1Cc1ccc(F)cc1 | 7.06% (inactive) |
| CC(C)CCC[C@@H](C)[C@@H]1CC[C@@H]2[C@H]3CC[C@H]4C[C@@H](N)CC[C@@]4(C)[C@@H]3CC[C@]21C | 26.8% (inactive) |
| C#CCOC(=O)[C@H](N)CC(N)=O | 13.9% (inactive) |
| NC(=O)N/N=C1\CC[C@H](O)C[C@@H]1CC(=O)O | 5.67% (inactive) |
| COc1cc([C@@H](O)CO)ccc1OS(=O)(=O)O | 4.87% [at 38 µM] (inactive) |
| N#CNC(N)=Nc1ccc(Cl)cc1 | 2.31% (inactive) |

* * *

procedure summary: Stat Signaling Pathway (AID 446);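 also: ME-180 cervical cancer cells given 40 pM IL-6 alongside compound; SIE-controlled beta-lactamase reporter measured as 460/530 nm FRET emission ratio; % is scaled to controls: 0 for no effect and ±100 for the full control effect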
assay context: ME-180 (cervical carcinoma) SIE beta-lactamase reporter, IL-6 stimulated, 5 h; at 7.69 µM (top of the series) unless noted
Results filed as inconclusive are left out. Active and inactive are the calls of the source. Calls follow the shape of the dose curve; as a rule, active = well fitted curve in either direction with a large enough effect (not every such curve was filed as active); inconclusive = small, poorly fitted or top-dose-only effect, or another doubt; inactive = flat fitted curve, though single readings scatter.
Recorded measurements of activity, negative = inhibition, one per entry

| molecule | activity, negative = inhibition |
| --- | --- |
| O[C@]1(c2ccccc2)c2ccccc2NC2=NCCN21 | 4.27% (inactive) |
| O=[N+]([O-])c1ccccc1N=Nc1c(O)[nH]c2ccc(S(=O)(=O)O)cc12 | -1.49% (inactive) |
| O=C(O)c1cccc(C(=O)O)c1S(=O)Cc1ccccc1 (stereo unspecified) | 6.2% (inactive) |
| COc1ccc(/C=N\NC(=O)O)cc1 | 7.25% (inactive) |
| CN1CCC[C@@H]1c1cccnc1.O=C(O)c1ccccc1O.O=C([OH2+])c1ccccc1O.O=C([OH2+])c1ccccc1O.[Mn] | 17.5% (inactive) |
| CS(=O)(=O)Nc1cccc(-c2nc(NCc3cccnc3)c3ccccc3n2)c1 | -19.5% (inactive) |
| Cc1cccc(Cl)c1NC[C@H](O)CN1CCN(C)CC1 | 6.35% (inactive) |
| O=C(O)NCc1ccccc1 (tested in a mixture with another compound) | 1.18% (inactive) |
| O=C(O)C/C=C\CC(=O)O | 1.96% (inactive) |
| CO[C@@H]1/C=C\O[C@]2(C)Oc3c(C)c(O)c4c(O)c(c(CN(C)C)c(O)c4c3C2=O)NC(=O)/C(C)=C\C=C[C@@H](C)[C@@H](O)[C@H](C)[C@@H](O)[C@H](C)[C@H](OC(C)=O)[C@@H]1C | -2.18% (inactive) |
| c1ccc2c[n+](Cc3ccnc4ccccc34)ccc2c1 | -6.6% (inactive) |
| O=C(O)/C(Cc1ccnc2ccccc12)=N\O | 4.23% (inactive) |
| COc1ccc2c(Cl)cc(NC(=S)Nc3ccccc3)nc2c1 | 2.27% (inactive) |
| NCCNc1ncnc2ccc(Cl)cc12 | -14.9% (inactive) |
| CC1(C)N=C(N)N=C(N)N1c1cccc(OCc2cccc(N)c2)c1 | -3.01% (inactive) |
| O=C(O)CCCCCC[C@@H]1C(=O)NC(=O)N1CC[C@@H](O)C1CCCCC1 | 3.65% [at 38 µM] (inactive) |
| Cc1sc2ccccc2[n+]1CCC(=O)O | 8% (inactive) |
| Cn1c(C[C@@H](O)c2nc3ccccc3n2C)nc2ccccc21 | 8.01% (inactive) |
| CC1(C)CCC(NC(=O)[C@H](N)CCC(=O)O)CC1 | -7.41% [at 38 µM] (inactive) |
| O=C(O)CCC(=O)N1CCC[C@H]1C(=O)O | -28.5% [at 38 µM] (inactive) |
| COc1ccc2c(c1)[n+]([O-])c(/C(C)=N/NC(N)=S)c(C)[n+]2[O-] | 0.294% (inactive) |
| Cc1ccc(CCCC(=O)O)cc1C | 3.42% (inactive) |
| O=C(O)[C@@H]1CCCN1Cc1ccc2c(c1)OCO2 | 0.869% (inactive) |
| CC(C)Cn1cnc2c(SCc3ccccn3)nc(N)nc21 | -1.91% (inactive) |
| OC[C@H](CCc1c[nH]c2ccccc12)c1c[nH]c2ccccc12 | -1.35% (inactive) |
| O=C(O)c1cc(=O)[nH]c(SCc2ccccc2)n1 | 0.79% (inactive) |
| Cn1ncc2c(NCCc3ccccc3)nc(Cl)nc21 | -19.5% (inactive) |
| Cc1cccc(C)c1OC[C@@H](N)C(C)C | 4.92% [at 38 µM] (inactive) |
| O=[N+]([O-])c1ccc2ncccc2c1CCc1c([N+](=O)[O-])ccc2ncccc12 | 5.88% (inactive) |
| O=C(O)[C@H](Cc1ccc(O)c([N+](=O)[O-])c1)N1C(=O)c2ccccc2C1=O | 2.16% (inactive) |
| O=C(c1ccccc1)[C@H](Nc1ccc2ccccc2c1)c1ccccc1 | -0.0129% (inactive) |
| CN(N=O)c1ccc(/C=C\c2ccnc3ccccc23)cc1 | -0.754% (inactive) |
| CC12CC[C@@H]3c4ccc(OP(=O)(O)O)cc4CCC3C1CCC2=O (stereo partly specified) | -5.93% (inactive) |
| CN(C)CCNCCN | 4.92% (inactive) |
| COc1cccc2c1C(=O)c1c(O)c3c(c(O)c1C2=O)C[C@](O)(C(=O)CO)C[C@@H]3O[C@H]1C[C@H](N)[C@@H](O)[C@H](C)O1 | 15.8% (inactive) |
| Cc1cc(C(=O)CSC(=S)SC(C)(C)C)ccc1Cl | -27.2% (inactive) |
| Cc1cnc(CNc2nc(-c3cccnc3)nc3ccccc23)cn1 | -9.76% (inactive) |
| CCN(CC(=O)O)C(=O)c1cccnc1 | -6.57% (inactive) |
| CC(=O)Nc1ccc2c(c1)C(=Nc1ccc(C(=O)O)cc1)c1ccccc1-2 | 4.14% (inactive) |
| O=c1c(CCc2ccccc2)nc2cnc(Oc3cccc(Cl)c3)nc2n1C[C@H]1CCCO1 | -17.7% (inactive) |
| O=C(O)CC(CC(=O)O)C(=O)O | 7.1% (inactive) |
| O=C(O)/C=C\C(=O)Nc1ncn[nH]1 | 2.6% (inactive) |
| CSc1ccc(NC(=O)Nc2cc(C)ccn2)cc1 | -7.77% (inactive) |
| O=C(O)/C=C\C(=O)Nc1cccc2c1-c1ccccc1C2=O | -4.51% (inactive) |
| N[C@@H](CSC1(c2ccc(Cl)cc2)c2ccccc2-c2ccccc21)C(=O)O | -2.38% (inactive) |
| O=C(O)CSSCC(=O)O | 17.7% (inactive) |
